- Tested on: RPMI-8226 leukemia
- assay.name: NCI-60 one-dose screen, 48 h (100 = growth as untreated, 0 = no growth, -100 = all killed)
- stated.conditions: 10 µM unless noted
The panel holds about 83,000 compounds, 20% with a hit somewhere; the sample as a whole holds those more often.
Reported growth is given for each of the following molecules.
Give your result in % as a bare value.

Observe how each entry below is paired with its result.
COc1cc(/C=C/C(=O)c2ccccc2)ccc1Oc1nc(Nc2ccc(F)cc2)nc(N(C)C)n1 :: -8.57
COc1ccc(C2CC(c3ccc(S(=O)(=O)NCCNc4nc(Nc5ccc(F)cc5)nc(N(C)C)n4)cc3)=Nc3c(N)nc(N)nc3N2)cc1 (stereo not drawn) :: 24
COc1ccc(C(=O)/C=C/c2cccc(Cl)c2)cc1S(N)(=O)=O :: -5.22
COC1=C[C@]23CCC(=O)N2CCc2cc4c(cc2[C@@H]3[C@@H]1OC(=O)[C@H](C)O)OCO4 :: -17.9
CN1CCN(c2ccc3c(c2)nc(NNC(=O)c2cnccn2)c2cccn23)CC1 :: 5.23
CC(=O)Oc1ccc(/C=C/C(=O)N[C@@H](Cc2ccccc2)C(O)C(=O)NCc2ccccc2)cc1OC(C)=O (stereo partly drawn) :: 69.8

Q. Which growth value is on record for CN(C)c1nc(NCCNS(=O)(=O)c2ccc(C3=Nc4c(N)nc(N)nc4NC(c4ccccc4)C3)cc2)nc(Nc2ccc(F)cc2)n1 (stereo not drawn) ?
A. 4.93

Q. Which growth value is on record for COc1cc2c(c(OC)c1OC)C(=O)CC(c1cccc(NC(=O)c3cccc(NC(=O)[C@H](C)NC(=O)OC(C)(C)C)c3)c1)O2 (stereo partly drawn) ?
A. 36.5

Q. Which growth value is on record for Cc1cccc(-c2nc(Nc3cccc(S(N)(=O)=O)c3)c3ccccc3n2)c1 ?
A. 38.3

Q. Which growth value is on record for COc1cc(C2CC(c3cc(OC)c(OC)c(OC)c3)=NN2C(C)=O)ccc1OCc1ccc(F)cc1 (stereo not drawn) ?
A. 36.6
